Known pIC50 of a selection of compounds
Assay: Inhibition of potassium channel IKr
For clarity, pIC50 is expressed as the negative log10 of concentration in mol/L.

# count of solved cases: 5
CC1(c2ccccc2)CCCN(C(=O)NCc2ccc(-c3ccccn3)cc2)C1 (stereo unspecified): 5.40
CC1(c2ccccc2)CCCN(C(=O)Nc2ccncc2)C1 (stereo unspecified): 5.30
CC1(c2ccccc2)CCCN(C(=O)Nc2noc3ccccc23)C1 (stereo unspecified): 4.74
CCN(CC)C(=O)CCC1(c2ccccc2)CCCN(C(=O)Nc2ccc(Cl)cc2)C1 (stereo unspecified): 5.22
O=C(CCC1(c2ccccc2)CCCN(C(=O)Nc2ccc(Cl)cc2)C1)Nc1nn[nH]n1 (stereo unspecified): 4.57

Record request: pIC50 value, item CC1(c2ccccc2)CCCN(C(=O)N[C@H]2C[C@@H]2c2ccccc2)C1 (stereo partly specified)
4.59

Record request: pIC50 value, item CC1(c2ccccc2)CCCN(C(=O)NCCc2ccc(Cl)cc2)C1 (stereo unspecified)
5.05

Record request: pIC50 value, item O=C(Nc1ccc(Cl)cc1)N1CCCC(CCc2nn[nH]n2)(c2ccccc2)C1 (stereo unspecified)
5.52

Record request: pIC50 value, item CC1(c2ccccc2)CCCN(C(=O)NCc2ccc(Cl)cc2Cl)C1 (stereo unspecified)
4.70

Record request: pIC50 value, item O=C(Nc1ccc(Cl)cc1)N1CCCC(CCCO)(c2ccccc2)C1 (stereo unspecified)
5.22

---

Target: Cytochrome P450 3A4 (Homo sapiens, UniProt P08684)
Sequence (P08684 whole entry): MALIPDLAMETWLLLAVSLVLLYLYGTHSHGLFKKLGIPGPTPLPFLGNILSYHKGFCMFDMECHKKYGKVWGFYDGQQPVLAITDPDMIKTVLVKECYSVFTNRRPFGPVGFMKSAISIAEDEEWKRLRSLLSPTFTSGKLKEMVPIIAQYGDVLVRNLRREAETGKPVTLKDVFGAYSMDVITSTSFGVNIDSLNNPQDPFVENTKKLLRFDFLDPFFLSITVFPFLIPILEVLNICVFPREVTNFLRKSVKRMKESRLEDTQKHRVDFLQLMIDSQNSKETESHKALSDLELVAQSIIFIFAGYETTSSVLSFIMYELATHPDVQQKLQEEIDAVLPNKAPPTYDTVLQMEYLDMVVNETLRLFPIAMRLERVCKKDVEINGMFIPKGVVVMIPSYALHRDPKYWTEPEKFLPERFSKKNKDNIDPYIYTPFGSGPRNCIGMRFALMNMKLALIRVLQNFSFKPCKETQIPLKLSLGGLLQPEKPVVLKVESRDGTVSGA
Assay: Inhibition of CYP3A4
Assay type: ADME
assayEndpoint: IC50

Record request: IC50 value, item O=C(O)CCC1(c2cccc(C(F)(F)F)c2)CCCN(C(=O)Nc2ccc(Cl)cc2)C1 (stereo not drawn)
> 10 µM

Record request: IC50 value, item CC1(c2ccccc2)CCCN(C(=O)Nc2ccc(Cl)cc2)C1 (stereo not drawn)
< 10 µM

Record request: IC50 value, item CC1(c2ccccc2)CCCN(C(=O)NCCc2ccc3nc[nH]c3c2)C1 (stereo not drawn)
> 10 µM

---

# Cytochrome P450 3A4 (Homo sapiens): IC50 values follow

O=C(Nc1ccc(Cl)cc1)N1CCCC(CCCO)(c2ccccc2)C1 (stereo not given): < 10 µM
CC1(c2ccccc2)CCCN(C(=O)NCc2ccc(-c3cccc(Cl)c3)cc2)C1 (stereo not given): < 10 µM
O=C(CCC1(c2ccccc2)CCCN(C(=O)Nc2ccc(Cl)cc2)C1)Nc1nn[nH]n1 (stereo not given): > 10 µM

Cytochrome P450 3A4 (Homo sapiens) / IC50 / CC1(c2ccccc2)CCCN(C(=O)NCc2ccc(-c3ccccn3)cc2)C1 (stereo not given) : value?
< 10 µM

Cytochrome P450 3A4 (Homo sapiens) / IC50 / N#CCCC1(c2ccccc2)CCCN(C(=O)Nc2ccc(Cl)cc2)C1 (stereo not given) : value?
> 10 µM

Cytochrome P450 3A4 (Homo sapiens) / IC50 / O=C(O)CCC1(c2ccccc2C(F)(F)F)CCCN(C(=O)Nc2ccc(Cl)cc2)C1 (stereo not given) : value?
> 10 µM

Cytochrome P450 3A4 (Homo sapiens) / IC50 / O=C(O)CCC1(c2cccnc2)CCCN(C(=O)Nc2ccc(Cl)cc2)C1 (stereo not given) : value?
> 10 µM

Cytochrome P450 3A4 (Homo sapiens) / IC50 / CC1(c2ccccc2)CCCN(C(=O)NCc2ccc(-c3ccc4[nH]ccc4c3)cc2)C1 (stereo not given) : value?
> 10 µM

Cytochrome P450 3A4 (Homo sapiens) / IC50 / O=C(Nc1ccc(Cl)cc1)N1CCCC(CCc2nn[nH]n2)(c2ccccc2)C1 (stereo not given) : value?
< 10 µM

Cytochrome P450 3A4 (Homo sapiens) / IC50 / CC1(c2ccccc2)CCCN(C(=O)Nc2ccc(-c3ccccc3)cc2)C1 (stereo not given) : value?
> 10 µM

Where do these numbers come from? They come from ChEMBL document CHEMBL1154229.
